Source: ChEMBL document CHEMBL1201862

System: HT-29
measurement_description: NCI tumour cell line growth inhibition, 48 h
Active and inactive are the calls of the source. Cut-off read from the data, not from the text of the source: active = GI50 up to about 1.1 µM and inactive = higher.
Hi! Could you answer with just one of these? active, inactive

Problem: Assay outcome for COc1cc([C@@H]2c3cc4c(cc3[C@@H](OC3OC5COC(C)OC5C(O)C3O)[C@H]3COC(=O)[C@H]23)OCO4)cc(OC)c1O (some centres undefined) : what was it?
Solution: inactive

Problem: Answer briefly: the call reported for `Nc1ccc(S(=O)(=O)Nc2nc3ccccc3nc2N2CCCCC2)cc1` in this assay.
Solution: inactive

Problem: Dear colleague, could you share the recorded outcome for COC(=O)C(=O)C(/C(=N/N)C(=O)Nc1ccccc1C(N)=O)c1nc2ccc([N+](=O)[O-])cc2nc1O (centres undefined) when you have a moment?
Solution: inactive

Problem: How was `O=c1ccn(C/C=C/c2ccccc2)c(=S)n1C/C=C/c1ccccc1` classified in this test?
Solution: inactive

Problem: For this molecule, state the assay outcome: CC1OC(OC2CC(O)(C(=O)CO)Cc3c(O)c4c(c(O)c32)C(=O)c2ccccc2C4=O)CC(N)C1O (centres undefined)
Solution: active

Problem: What did this assay record as the result for `O=c1[nH]c2nc3ccccc3c(=O)n2nc1Cc1ccccc1` ?
Solution: inactive

Problem: Hello, I am checking results. What call was entered for `CC(C)C1=C(Cc2ccccc2)C(=O)O/C1=C\c1cc(Cl)c(O)c(Cl)c1` ?
Solution: inactive

Problem: Would you mind telling me which call this test gave CC(C)(C)N/N=C(\C(=O)Nc1nnc(S)[nH]1)C1C(=O)Nc2ccccc2[S+]1[O-] (centres undefined) ?
Solution: inactive

Problem: Please state the recorded outcome for this molecule: `O=C(O)c1c(Cl)c(Cl)c(Cl)c(Cl)c1C(=O)Nc1ccc2cn[nH]c2c1`
Solution: inactive
